ASSAYED TARGET: SARS-CoV-2 RBD WT for SPR binding assays (SARS-CoV-2, UniProt P0DTC2)
RUN DESCRIPTION: SPR
List of Kd values.
Unit nM implied. Number only.

Some binders with known Kd results, for comparison:
S2H97 Fab (Fab, V domains shown) VH: QVRLVQSGAEVKKSGESLKISCKGSGYSFTSYWIGWVRQMPGKGLEWMGIIYPGDSDTRYSPSFQGQVTISADKSISTVYLQWSSLKASDTAMYYCARQWSHYTYDYYYWGQGTLVTISS VL: QSVLTQPASVSGSPGQSITISCTGISSDVGGYNSVSWYQQHPGKAPKLMIYDVTNRPSGVSNRFSGSKSGNTASLTISGLQAEDEADYYCSSYTSSSTPPYVFGTGTKVSVL ... 0.03
S304 IgG1 (LS) (antibody, V domains shown) VH: EVQLVESGGGLVQPGGSLRLSCAASGFTFSSYDMHWVRQTTGKGLEWVSTIGTAGDTYYPDSVKGRFTISREDAKNSLYLQMNSLRAGDTAVYYCARGDSSGYYYYFDYWGQGTLLTVSS VL: DIEMTQSPSSLSAAVGDRVTITCRASQSIGSYLNWYQQKPGKAPKLLIYAASSLQSGVPSRFSGSGSGTDFTLTISSLQPEDFAIYYCQQSYVSPTYTFGPGTKVDIK ... 0.4
S2H97 IgG1 (LS) (antibody, V domains shown) VH: QVRLVQSGAEVKKSGESLKISCKGSGYSFTSYWIGWVRQMPGKGLEWMGIIYPGDSDTRYSPSFQGQVTISADKSISTVYLQWSSLKASDTAMYYCARQWSHYTYDYYYWGQGTLVTISS VL: QSVLTQPASVSGSPGQSITISCTGISSDVGGYNSVSWYQQHPGKAPKLMIYDVTNRPSGVSNRFSGSKSGNTASLTISGLQAEDEADYYCSSYTSSSTPPYVFGTGTKVSVL ... 0.04

With those in mind, consider the next binder.
Enquiry: Which measured Kd value corresponds to S2X35 IgG1 (LS) (antibody, V domains shown) VH: QVQLVQSGAEVKKPGASVKVSCKASGYTFTNYGISWVRQAPGQGLEWMGWISAYKGNTNYAQKLQGRVTMTTDTSTSTAYMELRSLRSDDTAVYYCARPDYQVLGYDFWIGYYGMDVWGQGTTVIVSS VL: QSVLTQPPSVSGAPGQRVTISCTGSSSNIGAGYDVHWYQQLPGTAPKLLIYGNTNRPSGVPDRFSGSKSGTSASLAITGLQAEDEADYYCQSYDSSLSGSEVVFGGGTKLTVL ?
Return: 0.06
